Data origin, for the record: PubChem BioAssay AID602346

# method.notes: HIV Vif self-association inhibitors, primary screen, imaging, HEK293T, single point (AID 602346)
# applied.conditions: HEK293T cells, Vif self-association by quenched fluorescence, 24 h, at 7.49 µM
Screen size: about 340,000 compounds; about 1,200 (0.35%) were called active. Rule as the data show it: active = inhibition above about 50% (passing the limit was not always enough); inconclusive = no clear call, values can overlap the other calls; inactive = below about 31%. This excerpt belongs to a sample that is enriched for actives.
Outcome codes: active, inactive

compound	label.class
COc1ccc(C(=O)N[C@H](C(=O)NCc2ccccc2)C(C)C)cc1	inactive
CC(C)C[C@H]1CNC(=S)N1C[C@H]1CCCN1C[C@H](Cc1ccc(O)cc1)N1C[C@H](Cc2ccc(O)cc2)N(CC2CCCCC2)C1=S	inactive
COc1cc(Cn2c3ccc(NC(=O)CC(C)c4ccccc4)cc3c(=O)n2C)ccc1F (stereo unspecified)	inactive
CN(Cc1ccc(C(F)(F)F)cc1)C(=O)[C@H]1O[C@@H](n2cnc3c(N)ncnc32)[C@H](O)[C@@H]1O	inactive
COc1cc(OC)cc(C(=O)N[C@H](C(=O)Nc2nc3ccccc3[nH]2)C(C)C)c1	active
Nc1ncnc2c1ncn2[C@@H]1O[C@H](C(=O)NCC(F)(F)F)[C@@H](O)[C@H]1O	active
Cc1ccc(CNC(=O)c2ccc3c(c2)S(=O)(=O)c2ccccc2C3=O)cc1	inactive
Cc1nccn1-c1ccc(NC(=O)[C@H]2O[C@@H](n3cnc4c(N)ncnc43)[C@H](O)[C@@H]2O)cc1	inactive
NC(c1ccccc1)c1csc(NC(=O)Nc2cccc(C(F)(F)F)c2)n1 (stereo unspecified)	inactive
Cc1ccc(C)c(N2CCN(S(=O)(=O)c3ccc4c(c3)oc(=O)n4C)CC2)c1	inactive
N#CC(=C1CCCC1)c1nc(-c2ccc(Cl)cc2)cs1	inactive
CCOC(=O)c1ccccc1NC(=O)COC(=O)C(Cc1c[nH]c2ccccc12)NC(C)=O (stereo unspecified)	inactive
O=C(COc1ccccc1Cl)Nc1ccc(C(=O)c2ccc(C(=O)O)cc2)cc1	inactive
COc1ccccc1N1CCN(Cc2cc(OC)c3c(c2)OCO3)CC1	inactive
O=C(Nc1cccc(-n2cnnn2)c1)c1cccnc1	inactive
O=C(COC(=O)/C=C/c1ccc(Br)o1)Nc1cccc(S(=O)(=O)N2CCOCC2)c1	active
CC1CCN(c2ccc3c(c2)S(=O)(=O)c2cc(C(=O)O)ccc2C3=O)CC1	inactive
CC(C)(C)CC(=O)Nc1nc(C(N)Cc2ccc(C(F)(F)F)cc2)cs1 (stereo unspecified)	inactive
COc1ccccc1CNC(=O)c1cc(-c2cc(Cl)ccc2C)n[nH]1	inactive
CN(C)CCCn1c(N)c(C#N)c2nc(C#N)c(C#N)nc21	active
CN(C)c1cccc(NC(=O)c2ccc(-c3ccc(F)c(F)c3)c3ccoc23)c1	inactive
COc1ccc(Br)c(Cn2c(C)c(C(=O)NCc3cccs3)sc2=O)c1	inactive
COc1ccc(CN2CCN(Cc3ccc(OC)c(OC)c3OC)CC2)cc1	inactive
CC(=O)Nc1ccc(NC(=O)COc2ccccc2C(=O)Nc2cccc(Cl)c2Cl)cc1	active
O=C(COC(=O)c1ccccc1)Nc1cccc(S(=O)(=O)N2CCOCC2)c1	inactive
CC1(C(=O)NCC2CCOCC2)Cc2c(-c3cccc(C(N)=O)c3)ccnc2O1 (stereo unspecified)	inactive
Cc1ccc(NC(=O)Cn2sc3ccccc3c2=O)cc1	inactive
CC(=O)Oc1ccc(Cn2c(C)c(C(=O)NCc3ccc(C#N)cc3)sc2=O)cc1	inactive
CC(C)(C)NC(=O)COC(=O)c1cc(Br)ccc1Cl	inactive
NC(c1csc(NC(=O)Nc2ccccc2Oc2ccccc2)n1)c1ccccc1Cl (stereo unspecified)	inactive
Cc1cc(C)cc(C(=O)NCCN2CCOCC2)c1	inactive
CN(C)C(=S)Nc1ccc(Br)cc1Cl	inactive
CC(C)c1cc(N=O)cc(C(C)C)c1O	inactive
COc1ccccc1N1CCN(Cc2ccc(OC)c3ccccc23)CC1	active
COc1cc(OC)cc(C(=O)N[C@H](C(=O)NNC(=O)c2ccc(Br)cc2)C(C)C)c1	inactive
OC[C@@H]1CN(Cc2ccncc2)C[C@H](n2cnc3c(N4CCN(c5ccccc5)CC4)ncnc32)O1	inactive

====

# method.notes: HIV Vif self-association inhibitors, primary screen, imaging, HEK293T, single point (AID 602346)
# applied.conditions: HEK293T cells, Vif self-association by quenched fluorescence, 24 h, at 7.49 µM
Out of some 340,000 compounds screened, about 1,200 (0.35%) were called active. Rule as the data show it: active = inhibition above about 50% (passing the limit was not always enough); inconclusive = no clear call, values can overlap the other calls; inactive = below about 31%. Only a selection was taken, and actives are over-represented in it overall.
Outcome codes: label 1 for active, label 0 for inactive

compound	label.class
COc1ccc(CC(N)c2csc(NC(=O)NC(c3ccccc3)c3ccccc3)n2)cc1 (stereo unspecified)	label 0
C#Cc1ccc(NC(=O)C2(C)CCN2C(=O)Cc2ccc(-c3ccccc3)cc2)cc1 (stereo unspecified)	label 0
O=C(CCc1ccc(O)cc1)NN=Cc1cc(Br)ccc1O	label 0
CC(C)OC(=O)c1ccc(NCc2cc(O)ccc2O)cc1Cl	label 1
CC(CN1CCOCC1)OC(=O)c1ccc(Cl)cc1Cl (stereo unspecified)	label 0
CC1(C(=O)Nc2cccc(Oc3ccccc3)c2)CCN1Cc1ccccc1Cl (stereo unspecified)	label 0

====

# method.notes: HIV Vif self-association inhibitors, primary screen, imaging, HEK293T, single point (AID 602346)
# applied.conditions: HEK293T cells, Vif self-association by quenched fluorescence, 24 h, at 7.49 µM, hits give high values
Hit rate of the full screen: of about 340,000 compounds, about 1,200 (0.35%) were called active. Only a selection was taken, and actives are over-represented in it overall.
readout.name: inhibition (%)

compound	observed
O=C(NCCN1CCOCC1)c1ccccc1N1C(=O)[C@@H]2Cc3c([nH]c4ccccc34)C(c3cccc(Cl)c3)N2C1=O (some centres undefined)	2.4
CCCc1ccc(OCc2ccc(C(=O)N/N=C/c3cccc([N+](=O)[O-])c3)o2)c(OC)c1	53.7
CC(=O)Nc1cccc(-c2cc(NC(C)=O)c3ncc(-c4ccccc4)n3c2)c1	18.3
NS(=O)(=O)c1ccc(-c2ccc(/C=C3\SC(=O)NC3=O)o2)cc1	55.8
